Entries annotated with measured inhibition at 1 µM
MEASURED ON: Acyl-CoA:cholesterol transferase (ACAT) (Rattus norvegicus, UniProt Q7TQM4)
Construct: prepared from the microsomal fraction of mucosal cells from the small intestines of 6-week old Sprague-Dawley rats; from tissue; host or cells: microsomal fraction of small-intestinal mucosal cells, Sprague-Dawley rats
Sequence (Q7TQM4 1-524): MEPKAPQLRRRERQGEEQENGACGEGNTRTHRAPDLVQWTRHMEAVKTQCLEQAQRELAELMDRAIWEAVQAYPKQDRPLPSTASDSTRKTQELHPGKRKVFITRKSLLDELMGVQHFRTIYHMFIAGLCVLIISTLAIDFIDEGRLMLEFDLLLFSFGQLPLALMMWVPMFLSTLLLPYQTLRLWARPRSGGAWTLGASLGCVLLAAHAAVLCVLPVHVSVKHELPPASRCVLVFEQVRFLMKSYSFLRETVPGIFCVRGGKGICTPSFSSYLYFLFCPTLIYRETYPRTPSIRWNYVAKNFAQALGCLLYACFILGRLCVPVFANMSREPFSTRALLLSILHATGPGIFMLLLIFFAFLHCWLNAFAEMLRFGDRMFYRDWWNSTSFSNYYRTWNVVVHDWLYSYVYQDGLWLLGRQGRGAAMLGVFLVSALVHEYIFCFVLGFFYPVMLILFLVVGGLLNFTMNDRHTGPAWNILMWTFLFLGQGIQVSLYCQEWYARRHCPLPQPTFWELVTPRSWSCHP
ASSAY PROCEDURE: Acyl-CoA:cholesterol transferase (ACAT)-inhibiting action
Assay type: biochemical, Sprague-Dawley rats
TEST CONTEXT: 10^-6 M; microsomal fraction of mucosal cells from rat small intestines; labeled cholesterol ester formed from [1-14C]oleyl-CoA; read-out: ACAT inhibiting rate (%) 10^-6 M
Write it as a number; the unit % goes unstated.

Worked examples, 2 compounds total:
CPD SMILES | RECORDED VALUE
Cc1ccc2c(=O)oc(NC(=O)Nc3ccc(F)cc3F)c(-c3ccc(F)cc3)c2c1 | 98.5
CC(=O)Oc1c(C)cc(NC(=O)Nc2oc(=O)c3ccccc3c2-c2ccccc2)cc1C | 83.2

Next up:
[in] Reported inhibition at 1 µM for COc1ccccc1-c1c(NC(=O)Nc2cc(C)c(OC(C)=O)c(C)c2)oc(=O)c2ccccc12 : what is it?
[out] 99

====

MEASURED ON: Acyl-CoA:cholesterol transferase (ACAT) (Rattus norvegicus)
Construct: prepared from the microsomal fraction of mucosal cells from the small intestines of 6-week old Sprague-Dawley rats; from tissue; host or cells: microsomal fraction of small-intestinal mucosal cells, Sprague-Dawley rats
ASSAY PROCEDURE: Acyl-CoA:cholesterol transferase (ACAT)-inhibiting action
Type: biochemical, Sprague-Dawley rats
TEST CONTEXT: 10^-6 M; microsomal fraction of mucosal cells from rat small intestines; labeled cholesterol ester formed from [1-14C]oleyl-CoA; read-out: ACAT inhibiting rate (%) 10^-6 M
Entries annotated with measured inhibition at 1 µM
Write it as a number; the unit % goes unstated.

Worked examples, 3 compounds total:
COMPOUND | MEASURED ON | UNITS SYMBOL | inhibition at 1 µM
O=C(Nc1ccc(F)cc1F)Nc1oc(=O)c2ccccc2c1-c1ccccc1 [Example 12] | Acyl-CoA:cholesterol transferase (ACAT) (Rattus norvegicus) | % | 94.2
COc1ccccc1C1=C(NC(=O)Nc2cc(C)c(OC(C)=O)c(C)c2)SCc2ccccc21 [Example 27] | Acyl-CoA:cholesterol transferase (ACAT) (Rattus norvegicus) | % | 99.3
O=C(Nc1ccc(F)cc1F)Nc1oc(=O)c2ccc(Cl)cc2c1-c1ccccc1 [Example 1] | Acyl-CoA:cholesterol transferase (ACAT) (Rattus norvegicus) | % | 98

[in] Request body: readout inhibition at 1 µM, system Acyl-CoA:cholesterol transferase (ACAT) (Rattus norvegicus), query CC(=O)Oc1c(C)cc(NC(=O)Nc2oc(=O)c3ccc(Cl)cc3c2-c2ccccc2)cc1C [Example 13] . Return the value.
[out] 95.8
